test target: EF-G (E. coli, UniProt P0A6M8 1-704)
Sequence (P0A6M8 whole entry): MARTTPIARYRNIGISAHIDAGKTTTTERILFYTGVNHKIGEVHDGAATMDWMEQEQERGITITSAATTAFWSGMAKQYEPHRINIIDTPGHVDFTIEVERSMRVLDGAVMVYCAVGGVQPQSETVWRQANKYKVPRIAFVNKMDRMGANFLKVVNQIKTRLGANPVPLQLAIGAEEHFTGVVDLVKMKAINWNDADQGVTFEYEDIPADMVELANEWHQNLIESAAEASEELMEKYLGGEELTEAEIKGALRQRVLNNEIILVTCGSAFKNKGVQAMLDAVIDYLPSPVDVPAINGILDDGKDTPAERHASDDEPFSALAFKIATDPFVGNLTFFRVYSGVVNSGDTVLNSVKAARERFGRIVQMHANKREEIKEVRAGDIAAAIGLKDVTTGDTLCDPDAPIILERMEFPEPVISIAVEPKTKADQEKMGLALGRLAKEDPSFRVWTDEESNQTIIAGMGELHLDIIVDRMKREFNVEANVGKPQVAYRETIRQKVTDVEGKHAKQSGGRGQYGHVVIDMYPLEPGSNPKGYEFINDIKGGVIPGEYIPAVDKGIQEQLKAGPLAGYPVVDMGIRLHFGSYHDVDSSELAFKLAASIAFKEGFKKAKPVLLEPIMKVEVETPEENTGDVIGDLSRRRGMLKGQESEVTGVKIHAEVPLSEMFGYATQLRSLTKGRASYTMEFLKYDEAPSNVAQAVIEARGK
method: ITC
recorded endpoint: pKd
One number for each entry, as −log10 of the molar value.

## Task Recall and state the measured pKd for GGGCUCCUAGUACGAGAGGACCGGAGU (structured_RNA) [SRL RNA wt (27 nt)] .
## Result 5.38
